Metric: MIC (µg/mL)
Give just the number in µg/mL; leave the unit off.

Specify the recorded MIC for "CO[C@H]1CCC[C@@H]1C#CC#Cc1ccc(C(=O)N[C@H](C(=O)NO)C(C)(C)N)cc1" , system: NDM-1-producing Klebsiella pneumoniae 2146.
2

Specify the recorded MIC for "CC(C)(N)[C@H](NC(=O)N1CCN(C#CC#Cc2ccc([N+](=O)[O-])cc2)CC1)C(=O)NO" , system: NDM-1-producing Klebsiella pneumoniae 2146.
2

Specify the recorded MIC for "CC(C)(N)[C@H](NC(=O)c1ccc(C#CC#Cc2ccc(CN3CCCCC3)cc2)cc1O)C(=O)NO" , system: NDM-1-producing Klebsiella pneumoniae 2146.
2
